Just for reference, patent US20230110188A1 is where these values come from.

# assay target: T1, Human MuSK (R&D Systems, cat. 10189-MK, histidine tag) (human, UniProt O15146 24-495)
# T1 construct: Bought protein; also called human monomeric MuSK-6xhis; not shown: histidine tag (6xhis)
# T1 sequence: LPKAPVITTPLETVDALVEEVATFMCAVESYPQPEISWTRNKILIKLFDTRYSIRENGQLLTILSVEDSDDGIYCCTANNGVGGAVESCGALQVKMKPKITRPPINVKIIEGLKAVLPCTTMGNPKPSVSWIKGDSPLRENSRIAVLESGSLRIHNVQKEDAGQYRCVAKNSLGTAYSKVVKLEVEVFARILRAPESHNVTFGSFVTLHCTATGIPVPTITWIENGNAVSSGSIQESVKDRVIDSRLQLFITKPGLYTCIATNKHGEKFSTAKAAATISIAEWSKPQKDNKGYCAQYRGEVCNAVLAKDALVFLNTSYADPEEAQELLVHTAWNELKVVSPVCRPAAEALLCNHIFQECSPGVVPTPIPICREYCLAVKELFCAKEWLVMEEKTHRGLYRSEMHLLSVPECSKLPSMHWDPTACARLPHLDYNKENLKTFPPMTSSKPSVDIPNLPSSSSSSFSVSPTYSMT
# test details: SPR (Biacore), MuSK-coated chip presaturated with 500 nM 3F6c (competitor)
Below is a list of entries, each paired with its recorded extra amplitude (%) value.
Your answer is read as %, so omit the unit and give the number.

3D10a (antibody, human IgG1, kappa, L234A L235A, V domains shown) VH: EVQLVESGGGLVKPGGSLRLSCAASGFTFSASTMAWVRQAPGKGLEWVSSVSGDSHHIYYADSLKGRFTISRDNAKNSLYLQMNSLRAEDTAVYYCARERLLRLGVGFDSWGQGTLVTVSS VL: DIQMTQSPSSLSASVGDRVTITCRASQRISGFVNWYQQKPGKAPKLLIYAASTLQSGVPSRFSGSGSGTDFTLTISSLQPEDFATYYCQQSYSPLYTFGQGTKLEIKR    3.2
4D3 (antibody, human IgG1, kappa, L234A L235A, V domains shown) VH: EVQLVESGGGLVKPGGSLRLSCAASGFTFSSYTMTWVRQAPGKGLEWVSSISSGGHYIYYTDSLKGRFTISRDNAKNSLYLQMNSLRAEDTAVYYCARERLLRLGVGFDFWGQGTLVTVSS VL: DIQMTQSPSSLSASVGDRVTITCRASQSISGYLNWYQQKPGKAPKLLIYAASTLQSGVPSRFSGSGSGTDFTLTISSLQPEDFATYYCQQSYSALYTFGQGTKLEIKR    2.8

// below: extra amplitude (%) requested for another binder
Exercise: Tell me extra amplitude (%) reported for 3D9b (antibody, human IgG1, kappa, L234A L235A, V domains shown) VH: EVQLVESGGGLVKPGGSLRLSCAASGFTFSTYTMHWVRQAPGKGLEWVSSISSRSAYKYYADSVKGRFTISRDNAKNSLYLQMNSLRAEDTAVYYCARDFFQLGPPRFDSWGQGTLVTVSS VL: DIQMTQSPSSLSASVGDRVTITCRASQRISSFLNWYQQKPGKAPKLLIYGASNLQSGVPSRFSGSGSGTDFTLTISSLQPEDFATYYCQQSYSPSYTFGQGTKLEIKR
Key: 11.5
